biological target: human KHK-C (Homo sapiens (Human)); assay: KHK Biochemical Assay (IC50), ADP-Glo, KHK-C; details: average of at least two separate assays
Sequence (P50053 whole entry): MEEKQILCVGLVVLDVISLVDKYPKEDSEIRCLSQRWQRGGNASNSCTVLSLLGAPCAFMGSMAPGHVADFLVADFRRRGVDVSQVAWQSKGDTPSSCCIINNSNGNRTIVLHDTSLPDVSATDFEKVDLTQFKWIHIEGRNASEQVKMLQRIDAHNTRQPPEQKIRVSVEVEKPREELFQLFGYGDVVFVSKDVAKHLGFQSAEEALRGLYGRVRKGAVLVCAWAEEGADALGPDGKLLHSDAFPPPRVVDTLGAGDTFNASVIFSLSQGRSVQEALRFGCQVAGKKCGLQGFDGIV
observed_property: log10(IC50) (log10 of the value in µM)

compound: C[C@H]1CCN1c1nc2c(c(-c3ccc(C4(O)CS(=O)(=O)C4)cc3)n1)CCC2
log10(IC50): -1.85
//
compound: C[C@H]1CCN1c1nc2c(c(-c3nc4ccc(C(=O)O)cc4n3C)n1)CCC2
log10(IC50): -0.48
//
compound: CC(C)N1C(=O)NC2(COc3cc(-c4nc(N5C[C@@H](O)[C@@H]5C)nc5c4CCC5(F)F)ccc32)C1=O (stereo partly shown)
log10(IC50): -3.52
//
compound: C[C@H]1[C@H](O)CN1c1nc(-c2ccc3c(c2)[C@H](NS(C)(=O)=O)CC3)c2c(n1)C(F)(F)CC2 (single isomer, unassigned)
log10(IC50): -2.89
//
compound: N#CC1CCN1c1nc2c(c(-c3ccc(C(N)=O)cc3)n1)CCC2 (stereo not shown)
log10(IC50): -1.24
//
compound: C[C@H]1[C@H](O)CN1c1nc(-c2ccc3c(c2)CC[C@]32NC(=O)N(C)C2=O)c2c(n1)C(F)(F)CC2
log10(IC50): -4.00
